Reported pIC50 values are given for each entry in this list.
- PROTOCOL_SUMMARY: Cytotoxicity against human H1299 cells after 72 hrs by WST1 assay
- Type: functional, cell-based
- REPORTED_CONDITIONS: NCI-H1299, 72 h
The value called pIC50 is obtained by taking minus log10 of the concentration in mol/L.

Assign pIC50 to the following record: COc1ccc(Nc2c3ccccc3nc3c(C)cccc23)cc1NC(=O)Oc1ccc(N(CCCl)CCCl)cc1 6.45

Quote pIC50 reported for CC(C)OC(=O)Nc1cc(COC(=O)Nc2ccc(N(CCCl)CCCl)cc2)cc(Nc2c3ccccc3nc3ccccc23)c1 please. 5.04
